- EXPERIMENTAL TARGET: Cytochrome P450 2C9 (Homo sapiens) (UniProt P11712)
- Sequence (P11712 whole entry, looked up): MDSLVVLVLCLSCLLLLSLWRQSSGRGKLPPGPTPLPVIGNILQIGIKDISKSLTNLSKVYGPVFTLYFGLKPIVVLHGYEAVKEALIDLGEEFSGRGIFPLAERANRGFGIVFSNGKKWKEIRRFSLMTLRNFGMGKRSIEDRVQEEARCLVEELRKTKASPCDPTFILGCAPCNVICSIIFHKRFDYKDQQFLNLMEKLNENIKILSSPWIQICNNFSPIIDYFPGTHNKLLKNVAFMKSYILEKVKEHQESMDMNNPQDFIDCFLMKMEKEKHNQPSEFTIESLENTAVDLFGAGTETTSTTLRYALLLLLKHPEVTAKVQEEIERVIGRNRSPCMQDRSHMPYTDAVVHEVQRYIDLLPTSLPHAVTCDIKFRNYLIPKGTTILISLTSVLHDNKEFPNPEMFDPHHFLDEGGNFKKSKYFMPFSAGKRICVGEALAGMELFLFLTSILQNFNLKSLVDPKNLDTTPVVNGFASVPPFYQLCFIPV
- EXPERIMENT: blockers of cytochrome P450 2C9 activity – biochemical, luminescence, ADME assay, primary screen (AID 777)
- TEST CONDITIONS: CYP2C9 Supersomes, luciferin-H conversion, at 5 µM, active compounds read high
The campaign covered roughly 96,000 compounds. About 19,000 (20%) were called active. The list is a sample of the results.
Lab note: compare inhibition against 40%. Equal or greater, write TRUE. Smaller, write FALSE.

[ask] Is the recorded value of inhibition equal to or greater than 40% for this molecule? `CC(=O)Nc1ccc(NC(=O)CSCc2cnn(-c3ccccc3)c2-n2cccc2)cc1`
[reply] TRUE

[ask] Is the recorded value of inhibition equal to or greater than 40% for this molecule? `CC(=O)Nc1nc(C)c(Cc2ccccc2)c(=O)[nH]1`
[reply] FALSE

[ask] Is the recorded value of inhibition equal to or greater than 40% for this molecule? `CCCSc1nc2c(c(=O)n(C)c(=O)n2C)n1Cc1ccc(C)cc1`
[reply] FALSE

[ask] Is the recorded value of inhibition equal to or greater than 40% for this molecule? `Cc1ccc(C2=CSC3=NS(=O)(=O)CCN23)cc1C`
[reply] FALSE

[ask] Is the recorded value of inhibition equal to or greater than 40% for this molecule? `O=C(C1CC1)N1CCN=C1SCc1ccc(Cl)cc1`
[reply] FALSE

[ask] Is the recorded value of inhibition equal to or greater than 40% for this molecule? `CCCc1cc(=O)oc2c(C)c(O)c(CN3CCCCC3)cc12`
[reply] TRUE

[ask] Is the recorded value of inhibition equal to or greater than 40% for this molecule? `Cc1c(CCO)c(=O)n(-c2ccccc2)n1S(=O)(=O)c1ccc(F)cc1`
[reply] FALSE

[ask] Is the recorded value of inhibition equal to or greater than 40% for this molecule? `O=C(N/N=C\c1cccc(Br)c1)c1ccccc1-n1cccc1`
[reply] TRUE

[ask] Is the recorded value of inhibition equal to or greater than 40% for this molecule? `COC(=O)Cc1cc(=O)oc2c(C)c(O)ccc12`
[reply] FALSE

[ask] Is the recorded value of inhibition equal to or greater than 40% for this molecule? `CC(C)OCCCNc1nc2c(c(=O)n(Cc3ccccc3F)c(=O)n2C)n1C`
[reply] FALSE

[ask] Is the recorded value of inhibition equal to or greater than 40% for this molecule? `CCOC(=O)CSc1nc2c(c(=O)n(C)c(=O)n2C)n1Cc1ccccc1F`
[reply] TRUE
